Target: E. coli ACC (Escherichia coli, UniProt P0A9Q5+P0ABD5+P24182)
Experiment: ACC activity fluorescence polarization assay
Conditions: IC50, fluorescence polarization assay, triplicate, ± SD
measured.parameter: IC50 (nM)
The answer is to be given in nM; state only the numeric part.

get_value(item= C/C=C/C=C/C(=O)N[C@@H](CC(=O)N[C@H](C(=O)[C@@H]1C(=O)NC(=O)[C@H]1C)C(C)C)c1ccccc1 [Compound 3, moiramide B, reference compound] , readout=IC50) returns 5

// provenance: paper PMC10303036
